biological target: Monoamine oxidase (Rattus norvegicus, UniProt P19643+P21396); assay type: protein assay
Readout type: IC50 (nM)

- Compound: "C#CCN(C)C(C)CCCCC.Cl (centres undefined)"
  Target system: "Monoamine oxidase (Rattus norvegicus, UniProt P19643+P21396)"
  Recorded measurement: 320
- Compound: "C#CCN(C)C(C)CCCCCCCC.Cl (centres undefined)"
  Target system: "Monoamine oxidase (Rattus norvegicus, UniProt P19643+P21396)"
  Recorded measurement: 210
- Compound: "C#CCN(C)C(C)CCCCCCCCCC.Cl (centres undefined)"
  Target system: "Monoamine oxidase (Rattus norvegicus, UniProt P19643+P21396)"
  Recorded measurement: 280
- Compound: "C#CCN(C)C(C)CCC.Cl.O=C(O)C(=O)O (centres undefined)"
  Target system: "Monoamine oxidase (Rattus norvegicus, UniProt P19643+P21396)"
  Recorded measurement: 5600

----------
target: Amine oxidase [flavin-containing] B (Rattus norvegicus, UniProt P19643); assay: Inhibition of Monoamine oxidase B of rat liver mitochondrial membranes; format: cell membranes, Membrane
Sequence (P19643 whole entry): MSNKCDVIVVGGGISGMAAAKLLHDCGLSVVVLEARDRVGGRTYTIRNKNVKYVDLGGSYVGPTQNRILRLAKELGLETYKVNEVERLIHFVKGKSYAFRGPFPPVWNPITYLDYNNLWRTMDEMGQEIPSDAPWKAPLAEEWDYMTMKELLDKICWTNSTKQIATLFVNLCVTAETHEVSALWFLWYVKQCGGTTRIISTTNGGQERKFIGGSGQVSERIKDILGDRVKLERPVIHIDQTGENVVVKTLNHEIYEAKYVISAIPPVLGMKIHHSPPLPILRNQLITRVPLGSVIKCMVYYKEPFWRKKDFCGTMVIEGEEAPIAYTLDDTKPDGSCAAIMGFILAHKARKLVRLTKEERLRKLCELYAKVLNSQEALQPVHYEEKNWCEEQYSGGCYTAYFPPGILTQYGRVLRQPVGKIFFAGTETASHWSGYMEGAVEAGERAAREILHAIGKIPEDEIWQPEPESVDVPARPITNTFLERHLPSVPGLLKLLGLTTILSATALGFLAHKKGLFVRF
IC50 values by entry
Readout type: IC50 (nM)

- Molecule: "C#CCN(C)CCCCCCO.Cl"
  Recorded measurement: 120000
- Molecule: "C#CCN(C)C(C)CCCCO.Cl (stereo not given)"
  Recorded measurement: 130000
- Molecule: "C#CCN(C)C(C)CCCCC.Cl (stereo not given)"
  Recorded measurement: 210
- Molecule: "C#CCN(C)C(CC)CC"
  Recorded measurement: 180
- Molecule: "C#CCN(C)C(C)CCC.Cl.O=C(O)C(=O)O (stereo not given)"
  Recorded measurement: 180
- Molecule: "C#CCN(C)CCCCC.O=C(O)C(=O)O"
  Recorded measurement: 370
- Molecule: "C#CCN(C)C(C)CCCCCCCCCC.Cl (stereo not given)"
  Recorded measurement: 39
- Molecule: "C#CCN(C)C(C)CCCC.Cl (stereo not given)"
  Recorded measurement: 82
- Molecule: "C#CCN(C)C(C)CCCCCCCC.Cl (stereo not given)"
  Recorded measurement: 180
- Molecule: "C#CCN(C)C(C)C.Cl"
  Recorded measurement: 19000
- Molecule: "C#CCN(C)CCCC.Cl"
  Recorded measurement: 1400
